Entry source: patent US9956293B2

Tested on: HER2
assay.text: HER2 degradation in BT-474 cells (Example 3, Western blot / in-cell imaging)
Format: cell-based, human
experimental.context: Homo sapiens; BT-474 cells; read-out: HER2 (IC50)
In this section we review reported IC50 values for a set of compounds.

compound	IC50
CC(C)c1cc(-c2nnc(O)n2-c2ccc3c(ccn3CCOCCNC(=O)CCCC(=O)Nc3cccc4c3CN(C3CCC(=O)NC3=O)C4=O)c2)c(O)cc1O (stereo not drawn)	2.35 µM
CC(C)c1cc(-c2nnc(O)n2-c2ccc3c(ccn3CCC(=O)Nc3cccc4c3CN(C3CCC(=O)NC3=O)C4=O)c2)c(O)cc1O (stereo not drawn)	> 5 µM
CCc1c2c(nc3ccc(OCC(=O)N(C)CCn4ccc5cc(-n6c(O)nnc6-c6cc(C(C)C)c(O)cc6O)ccc54)cc13)-c1cc3c(c(=O)n1C2)COC(=O)C3(O)CC (stereo not drawn)	> 5 µM
